molecular target: D(3) dopamine receptor (Homo sapiens) (UniProt P35462); experiment: qHTS of D3 Dopamine Receptor Agonist: qHTS; conditions: D3R DiscoveRx beta-arrestin cells, luminescence, 90 min; note: 0% is about no effect
Sequence (P35462 whole entry, looked up): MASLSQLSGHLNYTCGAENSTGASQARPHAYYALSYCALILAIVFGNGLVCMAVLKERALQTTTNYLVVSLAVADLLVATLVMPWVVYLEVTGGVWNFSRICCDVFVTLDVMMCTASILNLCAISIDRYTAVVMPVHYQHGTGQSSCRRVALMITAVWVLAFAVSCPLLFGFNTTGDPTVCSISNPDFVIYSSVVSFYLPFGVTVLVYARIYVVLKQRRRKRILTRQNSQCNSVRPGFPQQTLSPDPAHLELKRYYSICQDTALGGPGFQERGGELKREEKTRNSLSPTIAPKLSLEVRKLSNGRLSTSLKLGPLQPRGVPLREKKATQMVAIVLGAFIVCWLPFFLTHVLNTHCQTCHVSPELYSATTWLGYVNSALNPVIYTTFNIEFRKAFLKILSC
Screen size: about 410,000 compounds; about 2,400 (0.59%) were called active. Cut-off read from the data, not from the text of the source: active = max activation above about 30%; inactive = the rest. Only a selection was taken, and actives are over-represented in it overall.
Lab note: assign the record to one of true (1) = active, false (0) = inactive

Outcome? C[C@]12CC[C@H](O)C[C@H]1CC[C@@H]1C2CC[C@]2(C)[C@@H](C3=CC(=O)OC3)[C@@H](O)C[C@]12O (stereo partly drawn) true (1)

Now the same for `O=S(=O)(O)C(F)(F)C(F)(F)C(F)(F)C(F)(F)F` false (0)

// next record CCCCC1C(=O)NC(=O)N(C2CCCCC2)C1=O (stereo not drawn) false (0)

Next record, please: `COc1cc(C[C@H](C)N)c(OC)cc1Br` false (0)

Then this compound: `O=c1[nH]c(CN2CC=C(c3ccccc3)CC2)nc2scc(-c3cccs3)c12` true (1)

Also need `C#C[C@]1(OC(=O)CCCCCC)CC[C@H]2[C@@H]3CCC4=CC(=O)CC[C@@H]4[C@H]3CC[C@@]21C` , thanks. false (0)

Try the compound COC1C(O)C(C)OC(OC2CCC3(C=O)C(CCC4C3CCC3(C)C(C5=CC(=O)OC5)CCC43O)C2)C1O (stereo not drawn) false (0)

Another compound to check: O=P1(N(CCCl)CCCl)NC(OO)CCO1 (stereo not drawn) false (0)

Data provenance: PubChem BioAssay AID652048
